Tested on: A. baumannii NCTC 13301
assay_name: Preliminary MBC without and with sub-inhibitory polymyxin B (Example 4)
Format: cell-based, Acinetobacter baumannii
test_parameters: Acinetobacter baumannii, NCTC13301, read-out: MBC +[…] PB
experimental_endpoint: MBC

Consider the worked cases shown below.
IN: Report MBC for "Cc1c(-c2ccc(CN)c(F)c2)ccn2c(=O)c(C(=O)O)cc(C3CC3)c12"
OUT: 0.5 µg/mL

IN: Please look at this compound and report its MBC: "Cc1c(-c2ccc(CN)cc2)c(F)cn2c(=O)c(C(=O)O)cc(C3CC3)c12"
OUT: 4 µg/mL

IN: Read off the recorded MBC for NCC[C@H](O)C(=O)N[C@@H]1C[C@H](N)[C@@H](O[C@H]2O[C@H](CN)[C@@H](O)[C@H](O)[C@H]2O)[C@H](O)[C@H]1O[C@H]1O[C@H](CO)[C@@H](O)[C@H](N)[C@H]1O [Amikacin, reference compound]
OUT: > 128 µg/mL

IN: For the compound "Cc1c(-c2ccc(N)cc2)ccn2c(=O)c(C(=O)O)cc(C3CC3)c12" , give its measured MBC value.
OUT: 1 µg/mL

IN: Specify measured MBC for "COc1c(N2C[C@@H]3CCCN[C@@H]3C2)c(F)cc2c(=O)c(C(=O)O)cn(C3CC3)c12" .
OUT: 128 µg/mL

Continuing:
IN: Identify measured MBC corresponding to "Cc1c(-c2cc(Cl)c(N)c(Cl)c2)ccn2c(=O)c(C(=O)O)cc(C3CC3)c12"
OUT: 0.5 µg/mL

IN: For "C[C@@H](O)[C@H]1C(=O)N2C(C(=O)O)=C(S[C@@H]3CN[C@H](C(=O)N(C)C)C3)[C@H](C)[C@H]12" , write its MBC.
OUT: 1 µg/mL
